Data origin: patent US20160029683A1

Assay: Blood plasma concentration of HMB in piglets infused with HMB
Type: in vivo, neonatal pigs
Settings: pig, intravenous, piglets infused with 20 μmol·kg^−1·hr^−1 HMB
Procedure: Overnight fasted neonatal pigs (5-7 days old) were infused with HMB with 0, 20, 100, or 400 μmol·kg^−1·hr^−1 HMB. Blood plasma concentrations of the following circulating substrates were measured. HMB was measured using gas chromatography per the method set forth in: Nissen, Steven (1990). Analysis of β-Hydroxy-β-methyl Butyrate in Plasma by Gas […] Chromatography and Mass Spectrometry Analytical Biochemistry 188, 17-19.

# compound, concentration at 1 h (µM)
measured = [
    ("CC(C)(O)CC(=O)O [HMB, beta-hydroxy-beta-methylbutyric acid]", 90),
]
